test system: MDA-MB-231 breast; assay: NCI-60 one-dose screen, 48 h; details: 10 µM unless noted
The panel holds about 83,000 compounds, 20% with a hit somewhere; the sample as a whole holds those more often. The source made the active and inactive calls. How the source made its calls: active means growth percent below 10; inactive means the rest.
Outcomes: active, inactive

> print(dat)
                                    compound  classname
 1  CC(=O)Nc1nc(C)c(C(=O)NNS(=O)(=O)c2ccccc2)s1   inactive
 2  Cc1ccc(C(=O)C(Br)C(Br)c2ccccc2)cc1 (centres undefined)   inactive
 3  O=C(Nc1ccc(-n2cc(-c3ccncc3)c(-c3ccc(Cl)c(O)c3)n2)cc1)c1ccc(Cl)c(C(F)(F)F)c1     active
 4             C/C(=N\Nc1ccc(Cl)cn1)c1ccccn1   inactive
 5  CCC(C)[C@H](NC(=O)Nc1cc(C(F)(F)F)cc(C(F)(F)F)c1)C(=O)N[C@@H](Cc1cn(C)cn1)C(=O)OC (some centres undefined)     active
 6  CN(CCC#N)c1ccc(/C=C(\C#N)c2cccc(C(F)(F)F)c2)cc1   inactive
 7  COC(=O)c1ccc2[nH]c(O)c(C(=Nc3ccc(N(C)C(=O)CN4CCN(C)CC4)cc3)c3ccc(OC)cc3)c2c1   inactive
 8        CCCCCCCCCCCCCCCCCC(=O)Nc1ccc(O)cc1   inactive
 9  C/C=C(/C)C(=O)OC1C=C(CO)C(=O)C(OC(=O)C(C)(O)C(C)Cl)C1C(C)C (centres undefined)     active
10  COc1ccc(C2=C/C(=C\c3ccc(Cl)cc3)C(=O)NN2C(=S)NN)cc1   inactive
11  COc1ccc(/C=C(/C(=O)N2CCCCC2)c2cc(OC)c(OC)c(OC)c2)cc1   inactive
12  COc1cc([C@@H]2c3cc4c(cc3[C@H](O)[C@H]3COC[C@@H]23)OCO4)cc(OC)c1OC   inactive
13  CCC(CCCN1C(=O)c2ccccc2C1=O)Nc1cc(OC)cc2cccnc12 (centres undefined)   inactive
14  CCn1cnc(C[C@H](NC(=O)[C@@H](NC(=O)Nc2cc(C(F)(F)F)cc(C(F)(F)F)c2)C(C)C)C(=O)OC)c1     active
15  COc1ccc(-c2nnc(SCC(=O)Nc3ccc(C(=O)/C=C/c4cc(OC)c(OC)c(OC)c4)cc3)n2-c2ccccc2)cc1OC     active
16  Nc1nc2c(c3cnccc13)C(c1ccc(Cl)c(Cl)c1)Cc1cnccc1-2 (centres undefined)     active
17       Oc1ccccc1/C=N/N=C/c1c(O)ccc2ccccc12   inactive
18  COC(=O)c1ccc2[nH]c(O)c(C(=Nc3ccc(N(C)C(=O)CN4CCN(C)CC4)cc3)c3ccc(N)cc3)c2c1   inactive
19      CCN(CC)CCNc1ncnc2c1cnn2-c1ccc(Cl)cc1   inactive
